Taken from patent US9737535B2.

Consider the following molecules; for each one, report its Synergy score.
test system: Hs-578-T; assay: Anti-proliferation assay (ATPLite), Chalice synergy score; format: cell-based; conditions: Compound 1 in combination with second active agent, mean self-cross + 2σ threshold 4.09
Numbers only.

Examples with answers:
CN(C)CC[C@H](CSc1ccccc1)Nc1ccc(S(=O)(=O)NC(=O)c2ccc(N3CCN(Cc4ccccc4-c4ccc(Cl)cc4)CC3)cc2)cc1[N+](=O)[O-] [ABT-737]    10.00
CC(=O)c1c(C)c2cnc(Nc3ccc(N4CCNCC4)cn3)nc2n(C2CCCC2)c1=O [PD-0332991]    0.75
c1ccc2c(CCNc3ccc(Nc4ccncc4)cc3)c[nH]c2c1 [JNJ 26854165]    1.28
C[C@@]1(C(=O)Nc2ccc(F)nc2)CCCN1c1nc(Nc2cc(C3CC3)n[nH]2)c2cccn2n1 [BMS-754807]    3.32
CC(C)C[C@H](NC(=O)CNC(=O)c1cc(Cl)ccc1Cl)B1OC(=O)C(CC(=O)O)(CC(=O)O)O1 [MLN9708]    1.68

Give one value of Synergy score per listed molecule.
1. NC(=O)Nc1cc(-c2cccc(F)c2)sc1C(=O)N[C@H]1CCCNC1 [AZD7762]
2. O=C(NC1CCNCC1)c1[nH]ncc1NC(=O)c1c(Cl)cccc1Cl [AT7519]
3. Nc1ccccc1NC(=O)c1ccc(CNC(=O)OCc2cccnc2)cc1 [MS-275]

8.16
5.16
8.44

###

test system: BT-474; assay: Anti-proliferation assay (ATPLite), Chalice synergy score; format: cell-based; details: Compound 1 in combination with the named second active agent, 72 h, mean of n = 3 experiments in triplicate
Reported Endpoint: Synergy score
Numbers only.

Record excerpt, results attached:
O=C(NC[C@H](O)CO)c1ccncc1Nc1ccc(I)cc1F    2.61
C[C@@]1(C(=O)Nc2ccc(F)nc2)CCCN1c1nc(Nc2cc(C3CC3)n[nH]2)c2cccn2n1    1.30
Oc1c2ccccc2c2c3c(cccc13)N=N2    0.72
CNC(=O)c1ccc(-c2cnc3ncc(Cc4ccc5ncccc5c4)n3n2)cc1F    2.35
O=C(O)c1ccc2c(c1)nc(Nc1cccc(Cl)c1)c1ccncc12    4.91
O=C(NC1CCNCC1)c1[nH]ncc1NC(=O)c1c(Cl)cccc1Cl    0.19
O=C(/C=C/c1cccnc1)NCCCCC1CCN(C(=O)c2ccccc2)CC1    0.60
Cc1ccc(S(=O)(=O)/C=C/C#N)cc1    0.93

Sample C=CC(=O)N1CCC[C@@H](n2nc(-c3ccc(Oc4ccccc4)cc3)c3c(N)ncnc32)C1 — what was its Synergy score?
5.95

###

test system: MDA-MB-157; assay: Anti-proliferation assay (ATPLite), Chalice synergy score; type: cell-based; conditions: Compound 1 in combination with second active agent, mean self-cross + 2σ threshold 4.68
Class Condition met: Synergy score at least 2. Class Condition not met: Synergy score below 2.

Answered examples (5):
CC(=O)c1c(C)c2cnc(Nc3ccc(N4CCNCC4)cn3)nc2n(C2CCCC2)c1=O [PD-0332991]    Condition not met
C[C@]12CC[C@@H]3c4ccc(O)cc4C[C@@H](CCCCCCCCC[S+]([O-])CCCC(F)(F)C(F)(F)F)[C@H]3[C@@H]1CC[C@@H]2O (stereo partly shown) [Fulvestrant]    Condition not met
CS(=O)(=O)N1CCN(Cc2cc3nc(-c4cccc5[nH]ncc45)nc(N4CCOCC4)c3s2)CC1 [GDC-0941]    Condition met
NS(=O)(=O)OC[C@@H]1C[C@@H](n2ccc3c(N[C@H]4CCc5ccccc54)ncnc32)C[C@@H]1O [MLN-4924]    Condition met
N.N.O=C([O-])C1(C(=O)[O-])CCC1.[Pt+2] [Carboplatin]    Condition not met

Then there is this compound:
Please indicate if the recorded Synergy score for CC(C)C[C@H](NC(=O)CNC(=O)c1cc(Cl)ccc1Cl)B1OC(=O)C(CC(=O)O)(CC(=O)O)O1 [MLN9708] meets or exceeds 2.
Condition met

###

tested on: HCC70; assay: Anti-proliferation assay (ATPLite), Chalice synergy score; format: cell-based; conditions: Compound 1 in combination with second active agent; HCC-70; mean self-cross + 2σ threshold 3.45
Assign Synergy score to each entry below.

Example cases with answers are listed next.
CC(C)C[C@H](NC(=O)CNC(=O)c1cc(Cl)ccc1Cl)B1OC(=O)C(CC(=O)O)(CC(=O)O)O1    2.16
NC(=O)Nc1cc(-c2cccc(F)c2)sc1C(=O)N[C@H]1CCCNC1    4.61
NC(=O)[C@@H](CCC(F)(F)F)N(Cc1ccc(-c2ncon2)cc1F)S(=O)(=O)c1ccc(Cl)cc1    1.24
COc1cc2c(NC3CCN(C4CCCCC4)CC3)nc(N3CCCN(C(C)C)CC3)nc2cc1OCCCN1CCCCC1    2.03
C=CCn1c(=O)c2cnc(Nc3ccc(N4CCN(C)CC4)cc3)nc2n1-c1cccc(C(C)(C)O)n1    12.10
COc1ccc(-c2cc3nccn3c(Nc3ncccc3C(N)=O)n2)cc1OC.Cl [BAY61-3606 Hydrochloride]    3.93
C[C@@H](Oc1cc(-c2cnn(C3CCNCC3)c2)cnc1N)c1c(Cl)ccc(F)c1Cl    3.31
C[C@]12CC[C@@H]3c4ccc(O)cc4C[C@@H](CCCCCCCCC[S+]([O-])CCCC(F)(F)C(F)(F)F)[C@H]3[C@@H]1CC[C@@H]2O (stereo partly drawn)    1.50

# map each compound to its Synergy score
1. NC1(c2ccc(-c3nc4ccn5c(=O)[nH]nc5c4cc3-c3ccccc3)cc2)CCC1
2. C/C=C1\NC(=O)[C@H]2CSSCC/C=C/[C@H](CC(=O)N[C@H](C(C)C)C(=O)N2)OC(=O)[C@H](C(C)C)NC1=O
3. O=C(/C=C/c1cccnc1)NCCCCC1CCN(C(=O)c2ccccc2)CC1
4. NS(=O)(=O)OC[C@@H]1C[C@@H](n2ccc3c(N[C@H]4CCc5ccccc54)ncnc32)C[C@@H]1O
5. O=C(Nc1cccc(Nc2ncc(Br)c(NCCc3c[nH]cn3)n2)c1)N1CCCC1
6. CCN(CCO)CCCOc1ccc2c(Nc3cc(CC(=O)Nc4cccc(F)c4)[nH]n3)ncnc2c1
7. O=C(Nc1cc(C(F)(F)F)cc(C(F)(F)F)c1)c1cc(Cl)ccc1O

1: 13.30; 2: 6.74; 3: 0.30; 4: 0.46; 5: 6.05; 6: 9.50; 7: 0.88

###

test system: BT-474; assay: Anti-proliferation assay (ATPLite), Chalice synergy score; type: cell-based; details: Compound 1 in combination with the named second active agent, 72 h, mean of n = 3 experiments in triplicate
Structures can show the parent of a compound that is named as a salt.
Would you kindly list Synergy score for each of these compounds?
Give bare numbers.

Answered examples (4):
O=C(NOC[C@H](O)CO)c1ccc(F)c(F)c1Nc1ccc(I)cc1F [PD0325901]    1.50
CC(C)C[C@H](NC(=O)CNC(=O)c1cc(Cl)ccc1Cl)B1OC(=O)C(CC(=O)O)(CC(=O)O)O1 [MLN9708]    0.75
CS(=O)(=O)N1CCN(Cc2cc3nc(-c4cccc5[nH]ncc45)nc(N4CCOCC4)c3s2)CC1 [GDC-0941]    5.04
COc1cc2c(NC3CCN(C4CCCCC4)CC3)nc(N3CCCN(C(C)C)CC3)nc2cc1OCCCN1CCCCC1 [UNC 0646]    1.13

Dear colleague, could you please provide Synergy score for the compounds listed below?
1. O=C(Nc1cccc(Nc2ncc(Br)c(NCCc3c[nH]cn3)n2)c1)N1CCCC1 [BX-912]
2. NS(=O)(=O)OC[C@@H]1C[C@@H](n2ccc3c(N[C@H]4CCc5ccccc54)ncnc32)C[C@@H]1O [MLN-4924]
3. CCc1cc(Nc2nccc(-c3c(-c4ccc(OC)c(C(=O)Nc5c(F)cccc5F)c4)nc4ccccn34)n2)c(OC)cc1N1CCC(N2CCN(S(C)(=O)=O)CC2)CC1 [GSK1904529A]

1: 0.87; 2: 8.59; 3: 1.09

Look up Synergy score for the entries below, preserving their order.
1. C[C@]1(c2nc3c(C(N)=O)cccc3[nH]2)CCCN1 [ABT-888]
2. COc1c(C)cnc(Cn2cnc3c(Cl)nc(N)nc32)c1C [BIIB021]
3. COc1ccc(Cl)c(Nc2nc3ccccc3nc2NS(=O)(=O)c2cccc(NC(=O)C(C)(C)N)c2)c1 [XL147]
4. CC[C@@]1(O)C(=O)OCc2c1cc1n(c2=O)Cc2cc3cc(O)ccc3nc2-1 [10-Hydroxycamptothecin]
5. CCc1c2c(nc3ccc(OC(=O)N4CCC(N5CCCCC5)CC4)cc13)-c1cc3c(c(=O)n1C2)COC(=O)[C@]3(O)CC [Irinotecan Hydrochloride]

1. 0.09
2. 2.83
3. 1.81
4. 1.20
5. 1.17

I need Synergy score for every entry listed below, if you could help.
1. COc1ccc(-c2ccc3c(N4CCOC[C@@H]4C)nc(N4CCOC[C@@H]4C)nc3n2)cc1CO [AZD8055]
2. O=C(Nc1cc(C(F)(F)F)cc(C(F)(F)F)c1)c1cc(Cl)ccc1O [IMD-0354]
3. CNC(=O)c1cc(Oc2ccc(NC(=O)Nc3ccc(Cl)c(C(F)(F)F)c3)cc2)ccn1 [Sorafenib]

1. 1.53
2. 1.77
3. 2.32

Query: Synergy score; subject: NC1(c2ccc(-c3nc4ccn5c(=O)[nH]nc5c4cc3-c3ccccc3)cc2)CCC1 [MK-2206]
8.24
